Record form. Attribute: inhibition. Fill in for each entry.
target: Histone deacetylase 2 (Homo sapiens, UniProt Q92769); assay: Inhibition of human HDAC2 at 1 uM using p53 (379 to 382 residues) derived fluorogenic peptide RHKKAc
Sequence (Q92769 whole entry, the tested form may be a part): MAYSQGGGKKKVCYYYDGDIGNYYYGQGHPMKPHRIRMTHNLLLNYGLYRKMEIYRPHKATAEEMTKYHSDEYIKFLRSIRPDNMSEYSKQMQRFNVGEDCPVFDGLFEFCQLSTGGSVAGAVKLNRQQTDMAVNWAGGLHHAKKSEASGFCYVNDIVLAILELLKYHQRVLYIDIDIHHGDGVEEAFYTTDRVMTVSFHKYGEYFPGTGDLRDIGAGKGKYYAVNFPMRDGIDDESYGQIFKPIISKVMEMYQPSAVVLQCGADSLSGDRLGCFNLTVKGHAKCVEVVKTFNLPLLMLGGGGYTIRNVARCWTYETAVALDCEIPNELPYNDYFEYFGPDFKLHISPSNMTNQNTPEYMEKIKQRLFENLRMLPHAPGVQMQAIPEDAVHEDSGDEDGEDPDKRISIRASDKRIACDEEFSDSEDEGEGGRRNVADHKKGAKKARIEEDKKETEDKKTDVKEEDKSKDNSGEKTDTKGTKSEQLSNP
Your reply should be a number followed by the unit it is expressed in.

stdin: Report inhibition for CC(C)[C@H](C(=O)Nc1ccc(C(=O)Nc2ccccc2N)cc1)c1ccccc1 please.
stdout: 31%

stdin: Report inhibition for Nc1ccccc1NC(=O)c1ccc(NC(=O)Cc2ccc(C(F)(F)F)cc2)cc1 please.
stdout: 38%

stdin: Report inhibition for CC(C)[C@@H](C(=O)Nc1ccc(C(=O)Nc2ccc(F)cc2N)cc1)c1ccccc1 please.
stdout: 26%

stdin: Report inhibition for CC(C)[C@@H](C(=O)Nc1ccc(C(=O)Nc2ccc(C(F)(F)F)cc2N)cc1)c1ccccc1 please.
stdout: 4%

stdin: Report inhibition for Nc1cc(F)ccc1NC(=O)c1ccc(NC(=O)Cc2ccc(C(F)(F)F)cc2)cc1 please.
stdout: 32%
